- Tested on: kochia (Kochia scoparia)
- testName: Test C postemergence
- Format: in vivo
- conditionDescription: Rate 250 g/ha, scale 0 to 100 (0 no effect, 100 complete control)
Listed molecules paired with reported Plant response rating, Kochia
Answer using only a numeral; do not append any unit.

CCC(C)c1ccn(C2CCN(c3ccc(C)c(OC)c3)C2=O)n1 (stereo not drawn) | 30
CCCC(C)c1ccn(C2OCN(c3cccc(OC(F)(F)F)c3)C2=O)n1 (stereo not drawn) | 90

With those in mind, consider the next molecule.
Input CCC(CC)c1ccn(C2SCN(c3cccc(C(F)(F)F)c3)C2=O)n1 (stereo not drawn) . Output Plant response rating, Kochia: 70

###

- Tested on: giant foxtail (Setaria faberii)
- testName: Test B preemergence
- Format: in vivo
- conditionDescription: Preemergence, Rate 500 g/ha; scale 0 to 100, 0 no effect, 100 complete control
Listed compounds paired with reported Plant response rating, Foxtail, Giant
Answer using only a numeral; do not append any unit.

Solved cases (3 shown):
COc1ccn(C2CCN(c3cccc(C(F)(F)F)c3)C2=O)n1 (stereo not drawn) | 0
Cc1cccc(N2CCC(n3ccc(C(C)(C)C)n3)C2=O)c1 (stereo not drawn) | 100
COc1cc(OC)cc(N2CCC(n3ccc(C(C)(C)C)n3)C2=O)c1 (stereo not drawn) | 100

Input Cc1cc(N2CCC(n3ccc(C(C)(C)C)n3)C2=O)ccc1Cl (stereo not drawn) . Output Plant response rating, Foxtail, Giant: 0

Input CC(C)c1ccn(C2SCN(c3cccc(C(F)(F)F)c3)C2=O)n1 (stereo not drawn) . Output Plant response rating, Foxtail, Giant: 50

Input CCC(CC)c1ccn(C2CCN(c3ccc(Cl)c(OC)c3)C2=O)n1 (stereo not drawn) . Output Plant response rating, Foxtail, Giant: 100

Input COc1cccc(N2CCC(n3ccc(C(C)(C)C)n3)C2=O)c1 (stereo not drawn) . Output Plant response rating, Foxtail, Giant: 100

Input CCC(C)c1ccn(C2SCN(c3cccc(OC(F)(F)F)c3)C2=O)n1 (stereo not drawn) . Output Plant response rating, Foxtail, Giant: 100

Input CCC(CC)c1ccn(C2SCN(c3cccc(C(F)(F)F)c3)C2=O)n1 (stereo not drawn) [Compound 21] . Output Plant response rating, Foxtail, Giant: 100

Input CC(C)(C)c1ccn(C2CCN(c3cccc(C#N)c3)C2=O)n1 (stereo not drawn) . Output Plant response rating, Foxtail, Giant: 0

###

- System: pigweed (Amaranthus retroflexus)
- testName: Test C preemergence
- Assay type: in vivo
- conditionDescription: preemergence, Rate 250 g/ha, visual evaluation after 12 to 14 days
Listed molecules paired with reported Plant response rating (0 to 100), Pigweed
Answer using only a numeral; do not append any unit.

Solved cases (3 shown):
CC(C)(C)c1ccn(C2CCN(c3cccc(C(F)(F)F)c3)C2=S)n1 (stereo not shown) | 50
CC1(c2ccn(C3OCN(c4cccc(C(F)(F)F)c4)C3=O)n2)CC1 (stereo not shown) | 0
CC(C)c1ccn(C2SCN(c3cccc(OC(F)F)c3)C2=O)n1 (stereo not shown) | 20

Input CC(C)(C)c1ccn(C2CCN(c3ccc(Cl)c(Br)c3)C2=O)n1 (stereo not shown) . Output Plant response rating (0 to 100), Pigweed: 0

Input CCC(C)c1ccn(C2SCN(c3cccc(C(F)(F)F)c3)C2=O)n1 (stereo not shown) . Output Plant response rating (0 to 100), Pigweed: 100

Input O=C1C(n2ccc(C3CCC3)n2)SCN1c1cccc(OC(F)(F)F)c1 (stereo not shown) . Output Plant response rating (0 to 100), Pigweed: 0

Input O=C1C(n2ccc(C3CCC3)n2)SCN1c1cccc(OC(F)F)c1 (stereo not shown) . Output Plant response rating (0 to 100), Pigweed: 0

Input CC(C)(C)c1ccn(C2CCN(c3cccc(OC(F)(F)F)c3)C2=O)n1 (stereo not shown) . Output Plant response rating (0 to 100), Pigweed: 100

Input CCC(C)c1ccn(C2SCN(c3cccc(OC(F)(F)F)c3)C2=O)n1 (stereo not shown) . Output Plant response rating (0 to 100), Pigweed: 70

Input O=C1C(n2ccc(C3CCC3)n2)SCN1c1cccc(C(F)(F)F)c1 (stereo not shown) . Output Plant response rating (0 to 100), Pigweed: 100

###

- Tested on: goosegrass (Eleusine indica)
- testName: Test C preemergence
- Assay type: in vivo
- conditionDescription: Preemergence; Rate 500 g/ha; scale 0 to 100
readoutType: Plant response rating, Goosegrass

Solved cases (3 shown):
O=C1C(n2ccc(C3CCCCC3)n2)OCN1c1cccc(C(F)(F)F)c1 (stereo not shown) [Compound 51] | 100
O=C1C(n2ccc(C3CCC3)n2)SCN1c1cccc(OC(F)F)c1 (stereo not shown) [Compound 45] | 100
CC(C)(C)c1ccn(C2CCN(c3cccc(Br)c3)C2=O)n1 (stereo not shown) [Compound 33] | 100

Input O=C1C(n2ccc(C3CCCCC3)n2)SCN1c1cccc(C(F)(F)F)c1 (stereo not shown) [Compound 52] . Output Plant response rating, Goosegrass: 100

###

- System: duck salad (Heteranthera limosa)
- testName: Test C flooded paddy test
- Type: in vivo
- conditionDescription: Flooded Paddy; Rate 500 g/ha; scale 0 to 100, 0 no effect, 100 complete control
readoutType: Ducksalad plant response rating
Answer using only a numeral; do not append any unit.

Solved cases (3 shown):
CCC(C)c1ccn(C2CCN(c3ccc(Br)c(OC)c3)C2=O)n1 (stereo not drawn) [Compound 142] | 100
Cc1ccc(N2CCC(n3ccc(C(C)(C)C)n3)C2=O)cc1OC(F)F (stereo not drawn) [Compound 79] | 90
CCC(C)c1ccn(C2SCN(c3cccc(OC(F)(F)F)c3)C2=O)n1 (stereo not drawn) [Compound 32] | 80

Input CC(C)c1ccn(C2SCN(c3cccc(OC(F)F)c3)C2=O)n1 (stereo not drawn) [Compound 44] . Output Ducksalad plant response rating: 100

Input CC(C)(C)c1ccn(C2CCN(c3ccc(F)c(Br)c3)C2=O)n1 (stereo not drawn) [Compound 75] . Output Ducksalad plant response rating: 90

Input CCC(CC)c1ccn(C2CCN(c3ccc(Cl)c(OC)c3)C2=O)n1 (stereo not drawn) [Compound 118] . Output Ducksalad plant response rating: 100

###

- System: Nightshade
- testName: Test C preemergence
- Format: in vivo
- conditionDescription: Rate 250 g/ha, scale 0 to 100, 0 no effect, 100 complete control
readoutType: Plant response rating, Nightshade

Solved cases (8 shown):
CCC(C)c1ccn(C2CCN(c3ccc(F)c(C(F)(F)F)c3)C2=O)n1 (centres unmarked) | 20
CCC(C)c1ccn(C2OCN(c3cccc(OC(F)(F)F)c3)C2=O)n1 (centres unmarked) | 80
CCCC(C)c1ccn(C2CCN(c3ccc(Cl)c(OC)c3)C2=O)n1 (centres unmarked) | 100
CC(C)c1cccc(N2CCC(n3ccc(C(C)(C)C)n3)C2=O)c1 (centres unmarked) | 0
CC(C)OC(=O)c1cccc(N2CCC(n3ccc(C(C)(C)C)n3)C2=O)c1 (centres unmarked) | 100
CCC(CC)c1ccn(C2CCN(c3cccc(OC(C)C)c3)C2=O)n1 (centres unmarked) | 100
CCC(C)c1ccn(C2CCN(c3cccc(OC)c3)C2=O)n1 (centres unmarked) | 0
CCC(C)c1ccn(C2CCN(c3ccc(C)c(OC)c3)C2=O)n1 (centres unmarked) | 100

Input CCC(CC)c1ccn(C2CCN(c3ccc(C)c(OC)c3)C2=O)n1 (centres unmarked) . Output Plant response rating, Nightshade: 100

Input CCCC(C)c1ccn(C2CCN(c3cccc(OCC)c3)C2=O)n1 (centres unmarked) . Output Plant response rating, Nightshade: 10

Input CCC(CC)c1ccn(C2CCN(c3ccc(Cl)c(OC)c3)C2=O)n1 (centres unmarked) . Output Plant response rating, Nightshade: 100

Input CC1(c2ccn(C3SCN(c4cccc(OC(F)(F)F)c4)C3=O)n2)CC1 (centres unmarked) . Output Plant response rating, Nightshade: 60

Input CCOc1cccc(N2CCC(n3ccc(C(C)(C)C)n3)C2=O)c1 (centres unmarked) . Output Plant response rating, Nightshade: 100

Input CCC(C)c1ccn(C2CCN(c3cccc(OC(C)C)c3)C2=O)n1 (centres unmarked) . Output Plant response rating, Nightshade: 60

Input COc1cc(N2CCC(n3ccc(C(C)C)n3)C2=O)ccc1C (centres unmarked) . Output Plant response rating, Nightshade: 100

Input CCOC(=O)c1cccc(N2CCC(n3ccc(C(C)(C)C)n3)C2=O)c1 (centres unmarked) . Output Plant response rating, Nightshade: 30

Input CCCC(C)c1ccn(C2SCN(c3cccc(C(F)(F)F)c3)C2=O)n1 (centres unmarked) . Output Plant response rating, Nightshade: 20

###

- Test system: johnsongrass (Sorghum halepense)
- testName: Test C postemergence
- Type: in vivo
- conditionDescription: Rate 250 g/ha, scale 0 to 100 (0 no effect, 100 complete control)
Listed compounds paired with reported Plant response rating, Johnsongrass
Answer using only a numeral; do not append any unit.

Observed Plant response rating, Johnsongrass on johnsongrass (Sorghum halepense), entry O=C1C(n2ccc(C3CCC3)n2)SCN1c1cccc(OC(F)(F)F)c1 (centres unmarked) [Compound 38] , equals 0

Observed Plant response rating, Johnsongrass on johnsongrass (Sorghum halepense), entry COc1cc(N2CCC(n3ccc(C(C)(C)C)n3)C2=O)ccc1Br (centres unmarked) [Compound 141] , equals 30

Observed Plant response rating, Johnsongrass on johnsongrass (Sorghum halepense), entry CCCC(C)c1ccn(C2CCN(c3ccc(Cl)c(OC)c3)C2=O)n1 (centres unmarked) [Compound 121] , equals 0

Observed Plant response rating, Johnsongrass on johnsongrass (Sorghum halepense), entry CCC(C)c1ccn(C2SCN(c3cccc(C(F)(F)F)c3)C2=O)n1 (centres unmarked) [Compound 20] , equals 80

Observed Plant response rating, Johnsongrass on johnsongrass (Sorghum halepense), entry CC(C)(C)c1ccn(C2SCN(c3cccc(OC(F)F)c3)C2=O)n1 (centres unmarked) [Compound 36] , equals 0
